ASSAY SUMMARY: Cytotoxicity assay (CellTiter-Glo, 72 h), MESO-1
Type: cell-based
ASSAY CONDITIONS: human, MESO-1 malignant pleural mesothelioma cells, conc 12.5 uM; raw replicate data; read-out: MESO1 viability (%)
ENDPOINT: viability at 72 h, 12.5 uM (%)
Please state the figure in %; there is no need to write the unit.

>>> experimental_result("CO[C@@H]1C[C@H](C[C@@H](C)[C@@H]2CC(=O)[C@H](C)/C=C(\\C)[C@@H](O)[C@@H](OC)C(=O)[C@H](C)C[C@H](C)/C=C/C=C/C=C(\\C)[C@H](O)C[C@@H]3CC[C@@H](C)[C@@](O)(O3)C(=O)C(=O)N3CCCC[C@H]3C(=O)O2)CC[C@H]1O [Compound 17, (16R)-16-O-demethyl rapamycin]")
72.1
>>> experimental_result("CO[C@H]1C[C@@H]2CC[C@@H](C)[C@@](O)(O2)C(=O)C(=O)N2CCCC[C@H]2C(=O)O[C@H]([C@H](C)C[C@@H]2CC[C@@H](O)[C@H](OC)C2)CC(=O)[C@H](C)/C=C(\\C)[C@@H](O)CC[C@H](C)/C=C/C=C/C=C/1C")
66.3
>>> experimental_result("COC1CC2CCC(C)C(O)(O2)C(=O)C(=O)N2CCCCC2C(=O)OC(C(C)CC2CCC(O)C(OC)C2)CC(=O)C(C)C=C(C)C(O)C(OC)C(=O)C(C)CC(C)C=CCCC=C1C (stereo not shown)")
63.9

Please examine the following record next.
IN: I'd like to know its viability at 72 h, 12.5 uM. The compound in question is COC1CC2CCC(C)C(O)(O2)C(=O)C(=O)N2CCCCC2C(=O)OC(C(C)CC2CCC(O)C(OC)C2)CC(O)CC(=O)C(C)C=C(C)C(O)CC(=O)C(C)CC(C)C=CC=CC=C1C (stereo not shown)
OUT: 69.4

###

ASSAY SUMMARY: Cytotoxicity assay (CellTiter-Glo, 72 h), Jurkat
Type: cell-based
ASSAY CONDITIONS: human, Jurkat cells (T lymphoma), conc 0.00038147 uM, raw data (replicates)
ENDPOINT: viability at 72 h, 0.00038147 uM (%)
Please state the figure in %; there is no need to write the unit.

>>> experimental_result("CO[C@@H]1/C=C/C=C/[C@@H](C)C[C@@H](C)C(=O)C[C@H](O)/C(C)=C/[C@@H](C)C(=O)C[C@@H]([C@H](C)C[C@@H]2CC[C@@H](O)[C@H](OC)C2)OC(=O)[C@@H]2CCCCN2C(=O)C(=O)[C@]2(O)O[C@@H](CC[C@H]2C)C1")
106
>>> experimental_result("CO[C@H]1C[C@@H]2CC[C@@H](C)[C@@](O)(O2)C(=O)C(=O)N2CCCC[C@H]2C(=O)O[C@H]([C@H](C)C[C@@H]2CC[C@@H](O)[C@H](OC)C2)CC(=O)[C@H](C)/C=C(\\C)[C@@H](O)[C@@H](OC)C(=O)[C@H](C)C[C@H](C)/C=C/C=C/C=C/1C [Compound 1, rapamycin, reference compound]")
41

Please examine the following record next.
IN: I'd like to know its viability at 72 h, 0.00038147 uM. The compound in question is CO[C@H]1C[C@@H]2CC[C@@H](C)[C@@](O)(O2)C(=O)C(=O)N2CCCC[C@H]2C(=O)O[C@H]([C@H](C)C[C@@H]2CC[C@@H](O)[C@H](OC)C2)CC(=O)[C@H](C)/C=C(\C)[C@@H](O)CC(=O)[C@H](C)C[C@H](C)/C=C/C=C(C)/C=C/1C
OUT: 105
